- Tested on: D20
- ASSAY_OVERVIEW: cells
- Set-up: species or system melanoma cell lines (3D spheres); 3D melanoma tumour sphere viability, CellTiter-Glo 3D luminescence, 7-point dose response
- CONDITION_CONTEXT: 3D tumour spheres, 72 h
RECORDED_ENDPOINT: pIC50
Entry type: numeric. Quantity: pIC50, the -log10 of concentration in molar units.

Input line: Supply reported pIC50 belonging to this molecule: COc1cc([C@@H]2COc3c(ccc(O)c3C)[C@@H]2c2ccc(O)c(F)c2)cc(OC)c1O (racemic)
Output line: 5.96

* * *

- System: D04
- ASSAY_OVERVIEW: cells
- Parameters: species or system melanoma cell lines (3D spheres); 3D melanoma tumour sphere viability, CellTiter-Glo 3D luminescence, 7-point dose response
- CONDITION_CONTEXT: 3D tumour spheres, 72 h
RECORDED_ENDPOINT: pIC50
Entry type: numeric. Quantity: pIC50, the -log10 of concentration in molar units.

Input line: Supply reported pIC50 belonging to this compound: COc1cc([C@@H]2COc3c(ccc(O)c3C)[C@@H]2c2ccc(O)c(F)c2)cc(OC)c1O (racemic) [TRX-E-009-1]
Output line: 6.60
